Assign self-cleavage to each entry below.
B1: Osa-1-4 twister ribozyme (parent)
chain: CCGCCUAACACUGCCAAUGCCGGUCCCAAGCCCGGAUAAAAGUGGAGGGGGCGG

- Variants of: B1
- Assay name: self-cleavage, relative activity (ratio to wild type); higher = more cleavage; co-transcriptional
Answers are plain numbers.

For orientation, consider the following solved cases.
In [3]: df
Out[3]:
   residue_change  reading
0       C32G G13A     0.04
1       C33U G48C     0.05
2       C15U G47A     0.06
3       G23C U24A     0.03
4       G35A G54C     0.85

Please state self-cleavage for every variant in the list that follows.
1. G50A U43C
2. A40C G54C
3. C52G G48U

1: 0.35; 2: 0.07; 3: 0.09

Field: self-cleavage. Fill in for each record below.
1. C26U U24C
2. A36G G51A

1: 0.07; 2: 0.78

// recorded self-cleavage for C9A G13U : 0.04
